# melting point per record follows

Consider the reported melting point for these compounds:
{"columns": ["compound", "value.measured"],
 "data": [
  ["Cc1cc(-c2nc3cccnn3c2-c2ccnc(NC(=O)Nc3cccnc3)c2)ccc1F", "233 to 234 °C"],
  ["Cc1cccc(-c2nc3ccc(Cl)nn3c2-c2ccnc(N)n2)c1", "237 to 238 °C"],
  ["Cc1cc(-c2nc3cccnn3c2-c2ccnc(NC(=O)c3ccc(Cl)cc3)c2)ccc1F [Example 42-7]", "208 to 209 °C"]
]}

Looking for the measured melting point of `Cc1cc(-c2nc3c(C)ccnn3c2-c2ccnc(N)c2)ccc1F` , can you help? 212 to 213 °C

Same lookup for `CCCNc1cc(-c2c(-c3cccc(C)c3)nc3cccnn23)ccn1` , please. 128 to 129 °C

And for `Cc1cc(-c2nc3cccnn3c2-c2ccnc(NC(=O)CCS(C)(=O)=O)c2)ccc1F` ? 227 to 228 °C

Okay, and `Cc1cc(-c2nc3cccnn3c2-c2ccnc(NC(=O)c3ccc(Cl)nc3)c2)ccc1F` ? 225 to 226 °C

Thanks! And Cc1cc(-c2nc3cccnn3c2-c2ccnc(NC(=O)NCC(C)O)c2)ccc1F (centres unmarked) ? 139 to 140 °C

Subsequent entry: `CCC(=O)Nc1cc(-c2c(-c3cccc(C)c3)nc3cccnn23)ccn1` 138 to 139 °C

Repeat for the following compound: `CCNC(=O)Nc1cc(-c2c(-c3ccc(F)c(C)c3)nc3cc(C(C)(C)C)cnn23)ccn1` 212 to 213 °C

Same question for `CCCNC(=O)Nc1cc(-c2c(-c3ccc(F)cc3)nc3cccnn23)ccn1` please. 219 to 220 °C

Also check `COc1cc(F)ccc1C(=O)Nc1cc(-c2c(-c3ccc(F)c(C)c3)nc3cccnn23)ccn1` 251 to 252 °C

Repeat for the following compound: `CCNC(=O)Nc1cc(-c2c(-c3cccc(C)c3)nc3cccnn23)ccn1` 212 to 213 °C

Same lookup for `Cc1cccc(-c2nc3cccnn3c2-c2ccnc(NCCN3CCCCC3)c2)c1` , please. 143 to 144 °C

Then `O=C(Nc1cc(-c2c(-c3ccc(F)cc3)nc3cccnn23)ccn1)c1ccncc1` ? 226 to 227 °C

`CCC(=O)Nc1cc(-c2c(-c3ccc(Cl)cc3)nc3cccnn23)ccn1` ? 204 to 205 °C

And then `Cc1cccc(-c2nc3cccnn3c2-c2ccnc(NCc3ccco3)c2)c1` , what is it? 150 to 151 °C

----------
measurement.kind: melting point

{"columns": ["molecule", "value.measured"],
 "data": [
  ["Cc1cccc(-c2nc3cccnn3c2-c2ccnc(NC3CC3)c2)c1 [Example Compound 6-4]", "202 to 203 °C"],
  ["CCC(=O)Nc1cc(-c2c(-c3ccc(F)c(C)c3)nc3cccnn23)ccn1 [Example Compound 21-18]", "166 to 167 °C"]
]}

Which melting point is listed for Cc1cc(-c2nc3cccnn3c2-c2ccnc(NC(=O)CC(F)(F)F)c2)ccc1F [Example 42-1] ? 220 to 221 °C

Next record, please: Cc1cccc(-c2nc3cccnn3c2-c2ccnc(NCc3ccccc3)c2)c1 [Example Compound 6-23] 193 to 194 °C

Same again, this time with Nc1cc(-c2c(-c3ccc(Cl)cc3)nc3cccnn23)ccn1 [Example Compound 16-2] 252 to 253 °C

How about Cc1cc(-c2nc3cccnn3c2-c2ccnc(NC(=O)c3ccoc3)c2)ccc1F [Example 42-33] ? 199 to 200 °C

Also need CSc1cc(Cl)nn2c(-c3ccnc(N)c3)c(-c3ccc(F)c(C)c3)nc12 [Example Compound 36-4] , thanks. 237 to 238 °C

Try the molecule Cc1cccc(-c2nc3cccnn3c2-c2ccnc(NCc3cccs3)c2)c1 [Example Compound 6-15] 185 to 186 °C
